- tgt: T1, cynoNectin4-mFc (cyno, UniProt A0A2K5WES1 32-349)
- T1 construct: Immobilized on the SPR chip; also called cyanoNectin4; not shown: mFc (mouse Fc)
- T1 sequence: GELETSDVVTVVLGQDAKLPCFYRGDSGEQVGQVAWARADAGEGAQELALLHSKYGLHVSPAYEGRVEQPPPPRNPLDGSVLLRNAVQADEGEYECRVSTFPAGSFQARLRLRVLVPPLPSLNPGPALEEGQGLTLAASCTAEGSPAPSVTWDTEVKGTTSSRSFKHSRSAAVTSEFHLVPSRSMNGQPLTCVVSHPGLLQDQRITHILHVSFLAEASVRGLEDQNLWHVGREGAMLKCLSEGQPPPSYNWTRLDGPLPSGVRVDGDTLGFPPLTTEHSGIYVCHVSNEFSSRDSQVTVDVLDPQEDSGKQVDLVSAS
- protocolText: SPR, cynoNectin4-mFc immobilized, pH 7.4
recordedMetric: pKd
Scale: pKd equals -log10([C]), with [C] in mol/L.

Summary for this binder, BAP-143-wildtype (antibody, V domains shown, 150 kDa used in SPR; also called BAP143-00-00; benchmark (BM)) VH: EVQLVESGGGLVQPGGSLRLSCAASGFTFSSYNMNWVRQAPGKGLEWVSYISSSSSTIYYADSVKGRFTISRDNAKNSLSLQMNSLRDEDTAVYYCARAYYYGMDVWGQGTTVTVSS VL: DIQMTQSPSSVSASVGDRVTITCRASQGISGWLAWYQQKPGKAPKFLIYAASTLQSGVPSRFSGSGSGTDFTLTISSLQPEDFATYYCQQANSFPPTFGGGTKVEIK : pKd is 9.61
